Values from ChEMBL document CHEMBL5058577

Tested on: HEK-293T
EXPERIMENTAL PROTOCOL: Multiplex assay against HEK293T
Type: toxicity, cell-based
ASSAY CONTEXT: human, 12 h, 10 µM, compound concentration 10 uM, replicate 1
Simple rule here: Population Mitotic Cells (%) less than 50% is fulfilled, otherwise not fulfilled.

Please state whether Population Mitotic Cells (%) is below 50% for `CCCn1c(=O)c2[nH]c(C3CCCC3)nc2n(CCC)c1=O`
fulfilled

###

System: HEK-293T
EXPERIMENTAL PROTOCOL: Multiplex assay against HEK293T
Format: toxicity, cell-based
ASSAY CONTEXT: human, 24 h, 1 µM, compound concentration 1 uM, replicate 2
Recorded Population Healthy Nuclei (%) values for a group of molecules are listed next.
Numbers only here, please. The scale is %.

Population Healthy Nuclei (%) lookup needed for COc1ccc2c(c1)C(C(=O)N(Cc1ccc(N(C)C)cc1)c1ccc(C(C)C)cc1)CCC2.Cl (stereo not given) , thanks.
79

Population Healthy Nuclei (%) lookup needed for `N#Cc1c(N)nc(SCc2csc(-c3ccc(Cl)cc3)n2)c(C#N)c1-c1ccc(OCCO)cc1` , thanks.
79

Population Healthy Nuclei (%) lookup needed for `CC(=O)NCCc1c(Cc2ccccc2)[nH]c2ccccc12` , thanks.
82

Population Healthy Nuclei (%) lookup needed for CN1CCN2c3ncccc3Cc3ccccc3C2C1 (stereo not given) , thanks.
79

Population Healthy Nuclei (%) lookup needed for `Cc1ccc(-c2ccc(F)cc2COc2ccc(CCC(=O)O)cc2)cc1` , thanks.
80

Population Healthy Nuclei (%) lookup needed for `c1cc(OCCCN2CCCCC2)ccc1CN1CCCCC1` , thanks.
79

Population Healthy Nuclei (%) lookup needed for `C[C@H]1[C@H]2CC[C@H]3[C@@H]4CC=C5C[C@@H](N(C)C)CC[C@]5(C)[C@H]4CC[C@]23CN1C` , thanks.
81

Population Healthy Nuclei (%) lookup needed for `Cc1ccc(/C(=C\CN2CCCC2)c2ccccn2)cc1` , thanks.
82

Population Healthy Nuclei (%) lookup needed for CCCN1CCC[C@@H]2Cc3n[nH]cc3C[C@H]21.Cl [QUINPIROLE HYDROCHLORIDE] , thanks.
81

Population Healthy Nuclei (%) lookup needed for Cl.Clc1ccc2nsnc2c1NC1=NCCN1 [TIZANIDINE HYDROCHLORIDE] , thanks.
80
